Recorded measurements of pIC50, one per entry
target: MAT2A (Homo sapiens (Human)); experiment: MAT2A biochemical test (inorganic phosphate colorimetric, PiColorLock); conditions: numeric values; read-out: MAT2A inhibitory Activity IC50
pIC50: −log10 of the molar value.
QUANTITY: pIC50

* [2H]C([2H])([2H])n1cnc2c(=O)n(-c3cccnc3C)c3nc(C(F)(F)F)ccc3c21 | 7.28
* Cn1cnc2c(=O)n(-c3cccc(F)c3F)c3nc(C(F)(F)F)ccc3c21 | 7.10
* Cn1cnc2c(=O)n(-c3ccc(Cl)cc3Cl)c3nc(C(F)(F)F)ccc3c21 | 6.60
* Cn1cnc2c(=O)n(-c3cccc(F)c3Cl)c3cc(Cl)ccc3c21 | 7.22

====

target: CYP3A4 (Homo sapiens (Human)); assay: CYP3A4 inhibition in human liver microsomes (midazolam substrate); type: in vitro ADME; conditions: human liver microsome
Sequence (P08684 whole entry): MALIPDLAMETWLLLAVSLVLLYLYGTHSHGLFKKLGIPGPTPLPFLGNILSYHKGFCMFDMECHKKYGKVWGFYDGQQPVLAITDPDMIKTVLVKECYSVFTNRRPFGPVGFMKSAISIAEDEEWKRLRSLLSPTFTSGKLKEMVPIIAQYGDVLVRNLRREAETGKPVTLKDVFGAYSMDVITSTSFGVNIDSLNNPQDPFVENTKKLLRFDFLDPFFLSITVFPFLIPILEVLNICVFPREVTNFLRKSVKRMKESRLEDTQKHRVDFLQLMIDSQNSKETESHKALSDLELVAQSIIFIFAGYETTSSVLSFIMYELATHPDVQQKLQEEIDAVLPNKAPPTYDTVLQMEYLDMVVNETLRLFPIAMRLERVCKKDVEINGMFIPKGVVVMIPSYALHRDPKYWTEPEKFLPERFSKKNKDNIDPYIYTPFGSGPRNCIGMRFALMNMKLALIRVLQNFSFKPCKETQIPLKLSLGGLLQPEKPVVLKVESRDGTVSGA
QUANTITY: IC50

* Cn1cnc2c(=O)n(-c3cccnc3C3CC3)c3cc(C(F)(F)F)ccc3c21 (single isomer, unassigned) [Compound 48-P2] | > 30 µM
* Cn1cnc2c(=O)n(-c3cccnc3C3CC3)c3nc(C(F)(F)F)ccc3c21 (single isomer, unassigned) [Compound 42-P2] | > 30 µM
* Cn1cnc2c(=O)n(-c3cccnc3C(F)(F)F)c3nc(C(F)(F)F)ccc3c21 (single isomer, unassigned) [Compound 41-P2] | > 30 µM
* Cn1cnc2c(=O)n(-c3cccc(F)c3Cl)c3cc(Cl)ccc3c21 | > 30 µM

====

Recorded measurements of AUC(0-t), one per entry
assay: Pharmacokinetics in Balb/c Nude mice; assay type: in vivo; conditions: female, mouse, plasma; PO 1 mg/kg, vehicle 5% NMP + 10% Solutol HS 15 + 85% water, Balb/c Nude mice; read-out: AUC0-24
QUANTITY: AUC(0-t) (ng·h/mL)

- Cn1cnc2c(=O)n(-c3cccnc3C(F)(F)F)c3nc(C(F)(F)F)ccc3c21 (single isomer, unassigned) [Compound 41-P2]: 10500
- Cn1cnc2c(=O)n(-c3cccc(F)c3Cl)c3nc(C(F)(F)F)ccc3c21 (atropisomer, axis not shown) [Compound 25]: 5840
- Cn1cnc2c(=O)n(-c3cccnc3C3CC3)c3cc(Cl)ccc3c21 (single isomer, unassigned) [Compound 49-P2]: 11300
- Cn1cnc2c(=O)n(-c3cccnc3C3CC3)c3cc(C(F)(F)F)ccc3c21 (single isomer, unassigned) [Compound 48-P2]: 24400
- Cn1cnc2c(=O)n(-c3cccnc3C3CC3)c3nc(C(F)(F)F)ccc3c21 (single isomer, unassigned) [Compound 42-P2]: 10500

====

biological target: MAT2A (Homo sapiens (Human), UniProt P31153); test: MAT2A biochemical test (inorganic phosphate colorimetric, PiColorLock); details: numeric values; read-out: MAT2A inhibitory Activity IC50
Sequence (P31153 whole entry): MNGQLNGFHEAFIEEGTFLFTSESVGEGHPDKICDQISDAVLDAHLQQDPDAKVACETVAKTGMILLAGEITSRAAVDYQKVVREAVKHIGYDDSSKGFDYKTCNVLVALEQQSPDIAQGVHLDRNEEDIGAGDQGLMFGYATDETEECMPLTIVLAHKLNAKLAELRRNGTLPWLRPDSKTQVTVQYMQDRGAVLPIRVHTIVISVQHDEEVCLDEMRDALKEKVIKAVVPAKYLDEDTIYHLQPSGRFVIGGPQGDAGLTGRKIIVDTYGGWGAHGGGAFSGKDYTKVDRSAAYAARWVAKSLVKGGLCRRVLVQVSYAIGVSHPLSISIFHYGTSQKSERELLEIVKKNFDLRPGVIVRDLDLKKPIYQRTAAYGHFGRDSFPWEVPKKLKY
Recorded measurements of IC50, one per entry
QUANTITY: IC50 (nM)

- O=c1c2nc[nH]c2c2ccc(C(F)(F)F)nc2n1-c1ccccc1Cl: 31.9
- COc1ccc(-n2c(=O)c3ncn(C)c3c3ccc(C(F)(F)F)nc32)cc1: 252
- COc1ncccc1-n1c(=O)c2ncn(C)c2c2ccc(C(F)(F)F)nc21: 53.5
- Cn1cnc2c(=O)n(-c3ccc(OC(F)F)cc3Cl)c3nc(C(F)(F)F)ccc3c21 (single isomer, unassigned) [Compound 58-P2]: 90.8
- Cc1ncccc1-n1c(=O)c2ncoc2c2ccc(Cl)cc21 [Compound 83]: 54.7
- Cn1cnc2c(=O)n(-c3cccnc3C3CC3)c3cc(C(F)(F)F)ccc3c21 (atropisomer, axis not shown) [Compound 48]: 36
- Cn1cnc2c(=O)n(-c3cccnc3C3CC3)c3cc(C(F)(F)F)ccc3c21 (single isomer, unassigned) [Compound 48-P2]: 21.4
- O=c1c2[nH]ncc2c2ccc(C(F)(F)F)nc2n1-c1ccccc1Cl: 50.1
